Data origin: the RepoRT retention time repository (doi:10.1016/j.scitotenv.2015.08.078)

Experiment: RP, Waters ACQUITY UPLC BEH C18, 100 × 2.1 mm, 1.7 µm, 0.3 mL/min, estimated dead time 0.73 min; A: water + 0.1% formic acid, pH 3; B: methanol + 0.1% formic acid, pH 3; gradient (min/%B) 0/10 14/90 16/90 18/10
Settings: stereoisomer not certain
Quick reference: LC retention time of the listed items.
Answer format: value, then unit.

// solved cases for LC retention time follow
| compound | observed property | observed result |
| --- | --- | --- |
| CCCCC1C(=O)N(c2ccccc2)N(c2ccc(O)cc2)C1=O (centres undefined) | LC retention time | 9.97 min |
| CCNc1nc(NC(C)C)nc(SC)n1 | LC retention time | 9.9 min |
| CNC1(c2ccccc2Cl)CCCCC1=O (centres undefined) | LC retention time | 4.88 min |

Please turn your attention to the following entry.
## Input State the recorded LC retention time for this entry: O=C(OC1CC2CCC(N2)C1C(=O)O)c1ccccc1 (centres undefined)
## Output 5.1 min

----------
Assay: RP, Waters ACQUITY UPLC BEH C18, 100 × 2.1 mm, 1.7 µm, 0.3 mL/min, estimated dead time 0.73 min; A: water + 0.1% formic acid, pH 3; B: methanol + 0.1% formic acid, pH 3; gradient (min/%B) 0/10 14/90 16/90 18/10
Settings: stereoisomer not certain
Quick reference: LC retention time of the listed items.
Answer format: value, then unit.

| molecule | LC retention time |
| --- | --- |
| CCOC(=O)c1ccccc1S(=O)(=O)NC(=O)Nc1nc(Cl)cc(OC)n1 | 8.65 min |
| CC1=C(C(=O)O)N2C(=O)C(NC(=O)C(N)c3ccc(O)cc3)C2SC1 (stereo unspecified) | 4.91 min |
| Cn1c([N+](=O)[O-])cnc1CO [HMMNI (Hydroxy Dimetridazole)] | 2.23 min |

## Input State the recorded LC retention time for this entry: Cn1c([N+](=O)[O-])cnc1C(C)(C)O [Hydroxyipronidazole (IPZOH)]
## Output 4.6 min

## Input State the recorded LC retention time for this entry: COC(=O)C1C(OC(=O)c2ccccc2)CC2CCC1N2C (stereo unspecified)
## Output 5.49 min

## Input State the recorded LC retention time for this entry: CCOC(=O)C1C(OC(=O)c2ccccc2)CC2CCC1N2C (stereo unspecified)
## Output 6.53 min

## Input State the recorded LC retention time for this entry: `COc1nc(C)nc(NC(=O)NS(=O)(=O)c2ccccc2Cl)n1`
## Output 7.94 min

## Input State the recorded LC retention time for this entry: COP(=S)(OC)Oc1ccc(Sc2ccc(OP(=S)(OC)OC)cc2)cc1 [Temephos (Abate)]
## Output 13 min

## Input State the recorded LC retention time for this entry: `CC(=NC#N)N(C)Cc1ccc(Cl)nc1`
## Output 4.99 min

## Input State the recorded LC retention time for this entry: CC(C)(C)NCC(O)c1ccc(N)c(C#N)c1 (stereo unspecified)
## Output 2.78 min

## Input State the recorded LC retention time for this entry: `CN1C(=O)CN=C(c2ccccc2)c2cc(Cl)ccc21`
## Output 10.9 min

## Input State the recorded LC retention time for this entry: `c1ccc(Nc2ccccc2)cc1`
## Output 10.5 min

## Input State the recorded LC retention time for this entry: CC(C)(C)NCC(O)c1cc(Cl)c(N)c(C(F)(F)F)c1 (stereo unspecified)
## Output 6.05 min

## Input State the recorded LC retention time for this entry: CCOP(=O)(NC(C)C)Oc1ccc(SC)c(C)c1 (stereo unspecified)
## Output 11.3 min

## Input State the recorded LC retention time for this entry: `CCOP(=S)(OCC)Oc1nc(Cl)c(Cl)cc1Cl`
## Output 14.1 min

## Input State the recorded LC retention time for this entry: `CC1=C(C(=O)Nc2ccccc2)S(=O)(=O)CCO1`
## Output 5.41 min

## Input State the recorded LC retention time for this entry: CCC1OC(=O)C(C)C(OC2CC(C)(OC)C(O)C(C)O2)C(C)C(OC2OC(C)CC(N(C)C)C2O)C(C)(O)CC(C)C(=NOCOCCOC)C(C)C(O)C1(C)O (stereo unspecified)
## Output 10.7 min

## Input State the recorded LC retention time for this entry: `COC(=O)Nc1nc2ccccc2[nH]1`
## Output 3.42 min
